Every entry's value here was drawn from paper PMC9911399.

- systemName: T1, RBFOX1 RRM (Homo sapiens, UniProt Q9NWB1 109-208)
- T1 sequence: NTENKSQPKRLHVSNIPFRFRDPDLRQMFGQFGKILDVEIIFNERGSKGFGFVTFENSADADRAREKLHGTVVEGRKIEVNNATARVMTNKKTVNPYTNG
- experimentNotes: EMSA; HiTS-Eq, 1 nM pool, 10 min; buffer printed only for the single-RNA assays: 10 mM Tris pH 7.5, 150 mM NaCl, 3.4 mM EDTA, 0.001% NP-40, 30 C
- measurementConditions: tags: His6 N-terminal (pET28a); label: 5' 32P
Whole data set: some 16,000 sequences, median “ka relative to ugcaugu” near 0.0091, cut for the highest 2% near 0.032. The full list was thinned out, with the highest values kept by preference.
resultType: binding signal

- binder: "UGCGAUC (DNA:RNA) RNA: GGGAGACCGGAAUUCAGAUUGUCCUGCGAUCUUAAAUCCCGUCGUAGCCACCA DNA 1: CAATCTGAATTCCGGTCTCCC DNA 2: TGGTGGCTACGACGGGATT"
  resultType: "binding signal"
  reportedValue: "0.0166 KA relative to UGCAUGU"

// switching to the query binder
Any idea what its binding signal is? The binder is UGGGAGA (DNA:RNA) RNA: GGGAGACCGGAAUUCAGAUUGUCCUGGGAGAUUAAAUCCCGUCGUAGCCACCA DNA 1: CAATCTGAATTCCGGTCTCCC DNA 2: TGGTGGCTACGACGGGATT
0.025 KA relative to UGCAUGU
